Target: glucocerebrosidase (Gcase) (Homo sapiens, UniProt P04062)
Construct: micellar solution containing 10 nM GCase and 100 nM saposin C (Enzo ALX-201-262-C050)
Sequence (P04062 40-536): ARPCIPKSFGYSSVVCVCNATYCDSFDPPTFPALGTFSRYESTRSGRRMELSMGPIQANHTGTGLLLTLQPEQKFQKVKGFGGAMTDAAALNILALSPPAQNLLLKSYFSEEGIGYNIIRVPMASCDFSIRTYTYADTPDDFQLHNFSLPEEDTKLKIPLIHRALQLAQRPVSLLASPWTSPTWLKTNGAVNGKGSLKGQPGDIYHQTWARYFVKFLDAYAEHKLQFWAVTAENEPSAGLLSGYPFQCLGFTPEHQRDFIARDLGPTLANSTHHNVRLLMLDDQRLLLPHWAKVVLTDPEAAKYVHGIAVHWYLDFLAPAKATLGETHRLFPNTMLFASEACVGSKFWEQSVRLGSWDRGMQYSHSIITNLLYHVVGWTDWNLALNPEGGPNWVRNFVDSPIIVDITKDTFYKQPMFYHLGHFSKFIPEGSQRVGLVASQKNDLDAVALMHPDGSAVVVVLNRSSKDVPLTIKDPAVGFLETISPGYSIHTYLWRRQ
Assay: Glucocerebrosidase (Gcase) activation assay, 4-methylumbelliferyl-beta-D-glucopyranoside substrate, with saposin C
Type: biochemical
Settings: read-out: Percent Gcase Activation 1 μM Test Compound
# activation at 1 µM per entry

Observe how each entry below is paired with its result.
{"molecule": "O=C(Nc1ccc(-c2cocn2)cc1)c1cnc2n(c1=O)CCS2", "result": "< 5%"}
{"molecule": "O=C(NC1CCOc2ccccc21)c1cnc2n(c1=O)CCS2 (stereo not drawn)", "result": "5 to 20%"}
{"molecule": "Cc1cccc2ncc(C(=O)Nc3ccc4c(c3)OCCO4)c(=O)n12", "result": "5 to 20%"}
{"molecule": "CCC(C)c1ccc(NC(=O)c2cnc3ccc(C)cn3c2=O)cc1 (stereo not drawn)", "result": "5 to 20%"}
{"molecule": "CCCCc1ccc(NC(=O)c2cnc3cccc(C)n3c2=O)cc1", "result": "> 20%"}

Just so you know, measured activation at 1 µM for `CCCCOC(=O)c1ccc(NC(=O)c2cnc3scc(C)n3c2=O)cc1` came out at > 20%

###

Molecular target: glucocerebrosidase (Gcase) (Homo sapiens)
Construct: micellar solution containing 10 nM GCase and 100 nM saposin C (Enzo ALX-201-262-C050)
Test: Glucocerebrosidase (Gcase) activation assay, 4-methylumbelliferyl-beta-D-glucopyranoside substrate, with saposin C
Format: biochemical
Conditions: read-out: Percent Gcase Activation 1 μM Test Compound
We begin with a simple list: items and their reported activation at 1 µM.

Example molecules with recorded activation at 1 µM:
{"molecule": "C#Cc1ccc(NC(=O)c2cnc3n(c2=O)CCS3)cc1", "activation at 1 µM": "5 to 20%"}
{"molecule": "CCc1ccc(NC(=O)c2cnc3sccn3c2=O)cc1", "activation at 1 µM": "> 20%"}
{"molecule": "O=C(NC1CC2CCC1C2)c1cnc2n(c1=O)CCS2 (centres unmarked)", "activation at 1 µM": "< 5%"}
{"molecule": "Cc1cccc2ncc(C(=O)Nc3ccc(-n4ccnc4)cc3)c(=O)n12", "activation at 1 µM": "5 to 20%"}
{"molecule": "Cc1cccc2ncc(C(=O)NC3CCC(C)CC3)c(=O)n12 (centres unmarked)", "activation at 1 µM": "> 20%"}

activation at 1 µM for `Cc1cccc2ncc(C(=O)NC3CCOCC3)c(=O)n12` is 5 to 20%

activation at 1 µM reported for this molecule `Cc1csc2ncc(C(=O)Nc3ccc4c(c3)OCO4)c(=O)n12` : 5 to 20%

// recorded activation at 1 µM for CCC(C)c1ccc(NC(=O)c2cnc3cccc(C)n3c2=O)cc1 (centres unmarked) : > 20%

Reported activation at 1 µM for O=C(NC1CCCc2ccccc21)c1cnc2n(c1=O)CCS2 (centres unmarked) was > 20%

###

Biological target: glucocerebrosidase (Gcase) (Homo sapiens, UniProt P04062)
Construct: micellar solution containing 10 nM GCase and 100 nM saposin C (Enzo ALX-201-262-C050)
Assay: Glucocerebrosidase (Gcase) activation assay, 4-methylumbelliferyl-beta-D-glucopyranoside substrate, with saposin C
Format: biochemical
Conditions: read-out: Percent Gcase Activation 0.1 μM Test Compound
Each record here notes measured activation at 0.1 µM.

Example results:
{"compound": "C#Cc1ccc(NC(=O)c2cnc3sccn3c2=O)cc1", "activation at 0.1 µM": "5 to 20%"}
{"compound": "CCC(C)c1ccc(NC(=O)c2cnc3ccccn3c2=O)cc1 (centres unmarked)", "activation at 0.1 µM": "< 5%"}
{"compound": "CCC1CCC(NC(=O)c2cnc3sccn3c2=O)CC1 (centres unmarked)", "activation at 0.1 µM": "5 to 20%"}

# activation at 0.1 µM (compound: `CCc1ccc(NC(=O)c2cnc3n(c2=O)CCS3)cc1` ) is < 5%

For record Cc1cccc2ncc(C(=O)NC3CCC(c4ccccc4)CC3)c(=O)n12 (centres unmarked) the listed activation at 0.1 µM is 5 to 20%
